# measurement.target: recombinant human ASK1 (hASK1) catalytic domain (Homo sapiens (Human))
# measurement.notes: ASK1 enzymatic assay (ADP-Glo Kinase Assay)
# measurement.conditions: ADP production; MKK6 300 nM substrate, ATP 100 uM; mean ± standard deviation
readout.kind: IC50 (nM)
Report the value in nM with no unit label.

For `Cc1cc2c(cc1-c1cnn(C(C)C)c1)C(=O)N(c1cccc(-c3nncn3C(C)C)n1)CC2` the compound record lists IC50 as 3.6

For CC(C)n1cnnc1-c1cccc(N2CCc3ncc(-n4cnc(C5CC5)c4)cc3C2=O)n1.Cl [Example 3, hydrochloride] the compound record lists IC50 as 3.8

For `CC(C)n1cc(-c2cnc3c(c2)C(=O)N(c2cccc(-c4nncn4C(C)C)n2)CC3)cn1` the compound record lists IC50 as 4.2

For `Cc1cc2c(cc1-n1cnc(C3CC3)c1)C(=O)N(c1cccc(-c3nncn3C(C)C)n1)CC2` the compound record lists IC50 as 1.8

###

Give measured Efficacy (%) for each item. Keep answers brief.
# measurement.target: recombinant human ASK1 (hASK1) catalytic domain (Homo sapiens (Human), UniProt Q99683)
# Sequence (Q99683 680-938): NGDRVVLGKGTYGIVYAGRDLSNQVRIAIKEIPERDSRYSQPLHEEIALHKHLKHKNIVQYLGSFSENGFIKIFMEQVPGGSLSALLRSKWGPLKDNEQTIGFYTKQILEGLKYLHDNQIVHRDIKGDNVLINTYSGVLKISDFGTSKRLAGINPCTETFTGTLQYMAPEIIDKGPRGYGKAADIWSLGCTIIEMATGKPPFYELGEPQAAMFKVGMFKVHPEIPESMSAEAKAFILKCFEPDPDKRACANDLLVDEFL
# measurement.notes: ASK1 enzymatic assay (ADP-Glo Kinase Assay)
# Type: biochemical
# measurement.conditions: hASK1 enzymatic assay; relative to standard inhibitor (100%) and DMSO vehicle (0%)
Report the value in % with no unit label.

Efficacy (%) value, target or system recombinant human ASK1 (hASK1) catalytic domain (Homo sapiens (Human), UniProt Q99683), for Cc1cc2c(cc1-c1cnn(C(C)C)c1)C(=O)N(c1cccc(-c3nncn3C(C)C)n1)CC2 [Example 1] : 101

Efficacy (%) value, target or system recombinant human ASK1 (hASK1) catalytic domain (Homo sapiens (Human), UniProt Q99683), for Cc1cc2c(cc1-n1cnc(C3CC3)c1)C(=O)N(c1cccc(-c3nncn3C(C)C)n1)CC2 [Example 2] : 100.5

Efficacy (%) value, target or system recombinant human ASK1 (hASK1) catalytic domain (Homo sapiens (Human), UniProt Q99683), for CC(C)n1cnnc1-c1cccc(N2CCc3ncc(-n4cnc(C5CC5)c4)cc3C2=O)n1.Cl [Example 3] : 100.1

Efficacy (%) value, target or system recombinant human ASK1 (hASK1) catalytic domain (Homo sapiens (Human), UniProt Q99683), for CC(C)n1cc(-c2cnc3c(c2)C(=O)N(c2cccc(-c4nncn4C(C)C)n2)CC3)cn1 [Example 4] : 99.8

###

# measurement.target: human ASK1 (Homo sapiens (Human))
# Sequence (Q99683 whole entry): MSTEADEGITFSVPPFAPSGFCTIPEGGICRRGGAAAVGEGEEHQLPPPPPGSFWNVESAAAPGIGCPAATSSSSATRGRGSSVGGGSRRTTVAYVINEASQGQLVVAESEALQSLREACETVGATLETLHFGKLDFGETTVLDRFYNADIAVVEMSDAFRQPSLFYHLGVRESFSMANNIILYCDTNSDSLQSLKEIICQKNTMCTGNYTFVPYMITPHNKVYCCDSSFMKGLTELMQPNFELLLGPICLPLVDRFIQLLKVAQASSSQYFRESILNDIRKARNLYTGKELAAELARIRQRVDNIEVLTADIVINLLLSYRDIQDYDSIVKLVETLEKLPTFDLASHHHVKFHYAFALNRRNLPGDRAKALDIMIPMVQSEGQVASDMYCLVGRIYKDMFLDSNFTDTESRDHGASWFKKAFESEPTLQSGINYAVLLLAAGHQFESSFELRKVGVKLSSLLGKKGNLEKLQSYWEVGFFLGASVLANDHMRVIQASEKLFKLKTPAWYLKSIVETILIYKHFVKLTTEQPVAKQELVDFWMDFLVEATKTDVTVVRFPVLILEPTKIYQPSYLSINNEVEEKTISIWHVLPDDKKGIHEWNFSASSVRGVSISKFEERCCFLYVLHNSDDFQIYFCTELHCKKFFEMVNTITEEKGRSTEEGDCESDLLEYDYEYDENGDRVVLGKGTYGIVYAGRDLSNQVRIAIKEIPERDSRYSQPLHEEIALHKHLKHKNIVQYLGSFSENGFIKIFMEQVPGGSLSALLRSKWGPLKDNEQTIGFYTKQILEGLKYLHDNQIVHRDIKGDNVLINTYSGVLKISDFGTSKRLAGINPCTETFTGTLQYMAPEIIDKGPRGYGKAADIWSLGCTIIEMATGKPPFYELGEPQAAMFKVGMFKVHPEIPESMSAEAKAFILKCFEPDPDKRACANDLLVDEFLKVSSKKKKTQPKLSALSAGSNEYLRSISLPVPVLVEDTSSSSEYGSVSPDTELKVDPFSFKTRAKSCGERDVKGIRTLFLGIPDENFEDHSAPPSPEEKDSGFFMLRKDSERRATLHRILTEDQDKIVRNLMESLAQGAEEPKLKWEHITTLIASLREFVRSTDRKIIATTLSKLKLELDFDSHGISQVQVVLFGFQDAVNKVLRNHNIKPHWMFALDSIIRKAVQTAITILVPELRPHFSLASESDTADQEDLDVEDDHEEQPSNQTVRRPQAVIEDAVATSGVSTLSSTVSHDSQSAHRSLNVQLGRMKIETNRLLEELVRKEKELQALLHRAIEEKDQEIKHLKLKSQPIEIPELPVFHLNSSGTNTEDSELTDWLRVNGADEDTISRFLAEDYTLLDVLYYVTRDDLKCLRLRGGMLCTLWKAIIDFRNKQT
# measurement.notes: ASK1 autophosphorylation (Thr838) assay in HEK293 cells overexpressing human ASK1
# measurement.conditions: H2O2-stimulated (1 mM, 10 min) ASK1 autophosphorylation at Thr838, HEK293 cells, HTRF; mean ± standard deviation; read-out: HEK pASK1 IC50
readout.kind: pIC50
Expect pIC50 as a plain number equal to -log10 of the molar concentration.

pIC50 value, target or system human ASK1 (Homo sapiens (Human)), for Cc1cc2c(cc1-n1cnc(C3CC3)c1)C(=O)N(c1cccc(-c3nncn3C(C)C)n1)CC2 [Example 2] : 7.88

pIC50 value, target or system human ASK1 (Homo sapiens (Human)), for Cc1cc2c(cc1-c1cnn(C(C)C)c1)C(=O)N(c1cccc(-c3nncn3C(C)C)n1)CC2 [Example 1] : 7.41

pIC50 value, target or system human ASK1 (Homo sapiens (Human)), for CC(C)n1cnnc1-c1cccc(N2CCc3ncc(-n4cnc(C5CC5)c4)cc3C2=O)n1.Cl [Example 3, hydrochloride] : 7.50

pIC50 value, target or system human ASK1 (Homo sapiens (Human)), for CC(C)n1cc(-c2cnc3c(c2)C(=O)N(c2cccc(-c4nncn4C(C)C)n2)CC3)cn1 [Example 4] : 7.38
